// data source = PubChem BioAssay AID697

# Assay target: Tyrosine-protein phosphatase non-receptor type 22 (Homo sapiens)
# Experiment description: LYP phosphatase activators, primary screen, biochemical, DiFMUP fluorescence, 2 µM (AID 697)
# Settings: recombinant LYP, at 2 µM, 0 = plate median, 100 = signal doubled
The campaign covered roughly 96,000 compounds. About 100 (0.1%) were called active.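 How the source made its calls: active means activation at 2 µM above a set limit, the mean plus 5 SD (cut at about 37% in these data); inactive means the rest.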 This excerpt belongs to a sample that is enriched for actives.
Write down the outcome that applies. Available outcomes: TRUE for active, FALSE for inactive

Reference set (6 entries):
1. C=CCN(C(=O)Nc1ccc2oc(C)nc2c1)c1ccccc1 = FALSE
2. O=C(Nc1ccccc1F)c1cc(S(=O)(=O)N2CCCCC2)cs1 = FALSE
3. CCn1c(C)nc2c1C(=O)c1ccccc1C2=O = FALSE
4. O=C(/C=C/c1cccs1)c1cc(Cl)ccc1OC(=O)N1CCOCC1 = FALSE
5. O=C(O)C1CC=CCC1C(=O)Nc1ccccc1C(=O)N1CCN(c2ccccc2)CC1 (centres undefined) = FALSE
6. Cc1nc(NC2=NC(C(=O)Nc3ccc(Cl)cc3)CC(=O)N2)nc2ccccc12 (centres undefined) = FALSE

*Q* What was the test verdict on O=S(=O)(c1cccc2nonc12)N1CCN(c2cccc(Cl)c2)CC1 ?
*A* FALSE

*Q* What did the test return for N/C(=N\OC(=O)c1cc(-c2ccccc2)nc2ccccc12)c1ccncc1 ?
*A* FALSE

*Q* Could you kindly confirm the outcome this assay logged for FC(F)(F)c1cnc(Oc2ccccc2-c2nnc(-c3ccc(Cl)cc3)o2)c(Cl)c1 ?
*A* FALSE

====

# Assay target: Tyrosine-protein phosphatase non-receptor type 22 (Homo sapiens) (UniProt Q9Y2R2)
# Sequence (Q9Y2R2 whole entry, looked up): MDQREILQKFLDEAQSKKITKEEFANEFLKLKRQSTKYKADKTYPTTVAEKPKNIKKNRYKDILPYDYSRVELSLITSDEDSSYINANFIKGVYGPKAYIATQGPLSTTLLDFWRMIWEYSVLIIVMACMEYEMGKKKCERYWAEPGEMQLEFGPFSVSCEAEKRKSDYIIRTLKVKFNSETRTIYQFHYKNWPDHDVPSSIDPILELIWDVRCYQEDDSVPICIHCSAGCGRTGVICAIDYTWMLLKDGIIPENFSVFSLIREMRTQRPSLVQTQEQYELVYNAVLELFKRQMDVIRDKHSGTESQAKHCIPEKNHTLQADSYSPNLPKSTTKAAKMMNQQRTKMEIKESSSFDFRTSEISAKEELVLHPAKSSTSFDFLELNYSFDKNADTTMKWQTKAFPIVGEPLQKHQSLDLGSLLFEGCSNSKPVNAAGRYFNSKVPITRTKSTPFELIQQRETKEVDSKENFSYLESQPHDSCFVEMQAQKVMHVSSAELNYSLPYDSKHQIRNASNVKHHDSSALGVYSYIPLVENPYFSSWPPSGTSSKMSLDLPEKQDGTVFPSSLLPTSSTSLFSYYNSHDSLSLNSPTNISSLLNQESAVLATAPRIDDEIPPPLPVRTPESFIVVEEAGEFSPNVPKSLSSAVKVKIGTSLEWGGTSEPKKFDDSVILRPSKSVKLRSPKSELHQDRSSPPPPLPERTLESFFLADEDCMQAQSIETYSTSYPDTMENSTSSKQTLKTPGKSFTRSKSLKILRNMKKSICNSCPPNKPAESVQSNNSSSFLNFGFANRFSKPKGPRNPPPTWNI
# Experiment description: LYP phosphatase activators, primary screen, biochemical, DiFMUP fluorescence, 2 µM (AID 697)
# Settings: recombinant LYP, at 2 µM, hits give high values, 0 = plate median, 100 = signal doubled
Among all 96,000 compounds or so, about 100 (0.1%) were called active. Shown is part of a subset that was picked to be rich in actives.
Each record here notes measured activation.
A number alone suffices; assume %.

# example entries with known answers
1. O=C(Cc1c(O)c2ccccc2[nH]c1=O)NCc1ccccc1 = 3.6
2. CCC(C)NC(=O)c1cc(Cl)ccc1OC (stereo unspecified) = 7
3. CCn1nccc1C(=O)Nc1ccc(S(=O)(=O)NC23CC4CC(CC(C4)C2)C3)cc1 = 4.2
4. COC(=O)CSc1nc(C)c2ccc(OC)cc2n1 = -3.9
5. CCOC(=O)c1cnc(SCc2nc(N)nc(Nc3ccc(OC)cc3)n2)nc1N = 0.5

*Q* Value lookup for activation; key = CC(=O)N/C(=C/c1ccc(Cl)cc1)C(=O)NCCc1c[nH]c2ccccc12
*A* -3

*Q* Entry CC(=O)C1=C(C)NC(C)=C(C(C)=O)C1c1cn(-c2ccccc2)nc1-c1cccs1 : reported activation = ?
*A* -3.9

====

// reported activation for each item listed
# Assay target: Tyrosine-protein phosphatase non-receptor type 22 (Homo sapiens) (UniProt Q9Y2R2)
# Experiment description: LYP phosphatase activators, primary screen, biochemical, DiFMUP fluorescence, 2 µM (AID 697)
# Settings: recombinant LYP, at 2 µM, hits give high values, 0 = plate median, 100 = signal doubled
In all, about 96,000 compounds went through this assay and about 100 (0.1%) were called active. Only a selection was taken, and actives are over-represented in it overall.
Please respond with the number in % and leave the unit unwritten.

1. O=C(CCN1C(=O)c2ccccc2C1=O)Nc1cccc(F)c1 = 7.2
2. CC(C)C(=O)Nc1nnc(Sc2ccc(N(C)C)cc2)s1 = -2.7
3. Cc1ccc(NS(=O)(=O)c2c(C)[nH]c(=O)[nH]c2=O)cc1C = 0.8
4. O=C(Oc1ccccc1C(=S)N1CCCCC1)c1cc([N+](=O)[O-])cc([N+](=O)[O-])c1 = -4.4
5. COc1cc(/C=C(\C#N)c2nc3c(s2)CC(C)CC3)ccc1O (stereo unspecified) = -3.9

Now for another entry.
*Q* What value of measured activation is listed for Cc1ccc(-c2nc3ccccc3[nH]2)cc1NC(=O)c1sc2ccccc2c1Cl ?
*A* -22.6

====

# Assay target: Tyrosine-protein phosphatase non-receptor type 22 (Homo sapiens) (UniProt Q9Y2R2)
# Experiment description: LYP phosphatase activators, primary screen, biochemical, DiFMUP fluorescence, 2 µM (AID 697)
# Settings: recombinant LYP, at 2 µM, 0 = plate median, 100 = signal doubled
Out of some 96,000 compounds screened, about 100 (0.1%) were called active.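 The calls were made as follows: active = activation at 2 µM above a set limit, the mean plus 5 SD (cut at about 37% in these data); inactive = the rest.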 This is one part of a sample in which actives are shown more often than they occur.
Return exactly one item of YES = active, NO = inactive

Sample answers from the record:
1) CC(C)C(=O)NC(=S)Nc1ccccc1F = NO
2) Cc1sc(NC(=O)C2C3CCC(O3)C2C(=O)O)c(C(=O)OC(C)C)c1-c1ccc(Cl)cc1 (centres undefined) = NO
3) CCCCCCc1cc2cc(-c3nnc(-c4cccc(OC)c4)o3)c(=O)oc2cc1O = NO
4) COC(=O)c1ccccc1NC(=O)Cc1ccccc1OC = NO
5) COc1ccc(NS(=O)(=O)c2ccc(NC(=S)NC(=O)CC(C)C)cc2)cc1 = NO

*Q* Dear all, I need the recorded test outcome for O=C(NCCCn1ccnc1)Nc1ccc(Cl)cc1Cl , thank you.
*A* NO

*Q* What was the test verdict on Cc1ccc(-c2nn(-c3ccccc3)cc2/C=N/NC(=O)c2ccc3c(c2)OCO3)cc1 ?
*A* NO

*Q* How was CCSc1ccccc1C(=O)NCc1ccc(OC)cc1 classified in this test?
*A* NO

*Q* For N#CCCn1ncc2ccccc21 , what call appears in the results of this test?
*A* YES

*Q* Outcome logged for Cc1nn(Cc2ccc(F)cc2)c(C)c1NC(=O)c1noc2c1CCc1ccccc1-2 in this assay:
*A* NO

*Q* Assay result, entry CN(C(=O)CC(NC(=O)c1ccccc1)(c1ccccc1)c1ccccc1)c1ccccc1 — outcome?
*A* NO

*Q* Which result was noted for this compound in the test: COc1ccc(CCN(C(=O)COc2ccccc2)c2nc(-c3ccccc3)cs2)cc1OC
*A* NO

*Q* Please share the test call associated with Cc1cccc(NC(=O)c2ccc(OCC(=O)NCc3ccccc3)cc2)c1C .
*A* NO

*Q* Recorded test outcome, item CCn1c(-c2ccoc2C)n[nH]c1=S
*A* NO

====

# Assay target: Tyrosine-protein phosphatase non-receptor type 22 (Homo sapiens)
# Experiment description: LYP phosphatase activators, primary screen, biochemical, DiFMUP fluorescence, 2 µM (AID 697)
# Settings: recombinant LYP, at 2 µM, hits give high values, 0 = plate median, 100 = signal doubled
The campaign covered roughly 96,000 compounds. About 100 (0.1%) were called active. This is one part of a sample in which actives are shown more often than they occur.
Readout name: activation

Known results for compounds:
1) Cc1ccc(N2C(=O)CC(Sc3ncn[nH]3)C2=O)cc1 (stereo unspecified) = -8.7% (inactive)
2) C/C(=N\NC(=O)c1ccc(C)cc1)C1C(=O)c2ccccc2C1=O = -6.7% (inactive)
3) CCC(C)NC(=O)c1ccccc1NC(=O)c1ccccc1N(C)S(C)(=O)=O (stereo unspecified) = 0.7% (inactive)
4) Cc1cccc(C)c1OC(=O)CSc1nnc(-c2ccccc2)o1 = 1.3% (inactive)
5) CCCCNC(=O)c1onc(CSc2cccc(OC)c2)c1C(=O)O = 4.5% (inactive)

Here is another compound to look at.
*Q* Tell me reported activation for O=C(/C=C/c1ccc(Cl)cc1Cl)c1cccnc1 , tested with Tyrosine-protein phosphatase non-receptor type 22 (Homo sapiens).
*A* 2.2% (inactive)

====

# Assay target: Tyrosine-protein phosphatase non-receptor type 22 (Homo sapiens) (UniProt Q9Y2R2)
# Experiment description: LYP phosphatase activators, primary screen, biochemical, DiFMUP fluorescence, 2 µM (AID 697)
# Settings: recombinant LYP, at 2 µM, hits give high values, 0 = plate median, 100 = signal doubled
Among all 96,000 compounds or so, about 100 (0.1%) were called active. Only a selection was taken, and actives are over-represented in it overall.
Readout name: activation (%)
Please reply with the bare figure in % and do not write the unit itself.

Examples from the recorded data:
1) N#Cc1ccccc1CN1C(=O)S/C(=C/c2cccn2-c2cccc(C(=O)O)c2)C1=O = -30.2
2) COC(=O)c1cccc(-n2[nH]nnc2=S)c1 = -1.7

*Q* Lab request: please report activation under test system Tyrosine-protein phosphatase non-receptor type 22 (Homo sapiens) (UniProt Q9Y2R2) for C=CCNC(=O)c1cc2nc(C3CC3)cc(C(F)F)n2n1
*A* -5.5

*Q* API: value(readout= activation, system= Tyrosine-protein phosphatase non-receptor type 22 (Homo sapiens) (UniProt Q9Y2R2), query= Cc1ccc(S(=O)(=O)N2CCC(C(=O)NCC3CCCO3)CC2)cc1 (stereo not given) )
*A* 0.4

*Q* Report activation for Cc1ccccc1NC(=O)c1cc(S(=O)(=O)N2CCOCC2)cs1 tested on Tyrosine-protein phosphatase non-receptor type 22 (Homo sapiens) (UniProt Q9Y2R2).
*A* 38

*Q* Could you share what activation was measured for O=C(NC1CC1)c1ccc2c(c1)NC(=O)c1ccccc1S2 , tested on Tyrosine-protein phosphatase non-receptor type 22 (Homo sapiens) (UniProt Q9Y2R2)?
*A* 3.4

*Q* Tyrosine-protein phosphatase non-receptor type 22 (Homo sapiens) (UniProt Q9Y2R2) / activation / CC(C)c1cc(C(=O)O)n[nH]1 : value?
*A* 1.7

*Q* # get_value(readout= activation, system= Tyrosine-protein phosphatase non-receptor type 22 (Homo sapiens) (UniProt Q9Y2R2)) for Cc1ccc(S(=O)(=O)/N=C(\CN2CCOCC2)N2CCOCC2)cc1
*A* -1.4

*Q* Record CCOc1c2ccc(C(=O)NCc3ccc(OC(F)(F)F)cc3)cc2nn1C : what is its activation with Tyrosine-protein phosphatase non-receptor type 22 (Homo sapiens) (UniProt Q9Y2R2)?
*A* 10

*Q* # get_value(readout= activation, system= Tyrosine-protein phosphatase non-receptor type 22 (Homo sapiens) (UniProt Q9Y2R2)) for COc1cc(C)c(C(C)C)cc1S(=O)(=O)n1ccnc1
*A* 9.7
